- assayRemarks: chemical genetic growth profiling, strain panel (AID 1159580);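 also: tested at 20 µM; growth read once vehicle control cultures reached saturation at 30 °C; 1 = growth at the plate median or of vehicle wells; lower values mean less growth of the strain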
- assayContext: S. cerevisiae strains, growth OD, strain wild type, hits give low values
The campaign covered roughly 5,500 compounds. About 2,000 (36%) were called active. About 18% were inconclusive and are not listed. This is one part of the list.
measuredMetric: normalized growth
Please give the numeric answer without any surrounding text.

Here's what some known entries look like.
O=C(O)c1cc(=O)c2ccc(Cl)cc2[nH]1: 1.02
CCC1(c2ccc(N)cc2)CCC(=O)NC1=O (stereo not drawn): 1.01
COC(=O)[C@@H]1C(O)CC[C@H]2CN3CCc4c([nH]c5ccccc45)[C@@H]3C[C@@H]21 (stereo partly drawn): 0.998
O=C(O)CSCC(=O)N1CCc2c([nH]c3ccccc23)C1C(F)(F)F (stereo not drawn): 0.993

Noted for "CC(=O)OCC(CCn1cnc2cnc(N)nc21)COC(C)=O" : its normalized growth reads 0.994

Measured normalized growth of O=C(O)COCC(=O)N1CCc2c([nH]c3ccccc23)C1C(F)(F)F (stereo not drawn) : 1.02

Documented normalized growth of "COc1ccc(-c2coc3c(O)c(OC)ccc3c2=O)cc1" : 0.83

Short answer for "O=C(/C=C/C=C/c1ccc2c(c1)OCO2)N1CCCCC1" : normalized growth was 0.948

Noted for "COc1ccc(C(=O)c2ccccc2)c(O)c1" : its normalized growth reads 0.911

The reported normalized growth of the compound "CC(=O)OCc1ccc(/C=C(\C#N)S(=O)(=O)c2ccc(Cl)cc2)o1" was 1.02

Consider "COc1ccc(-c2coc3c(OC)c(O)ccc3c2=O)cc1" . Its measured normalized growth is 0.95

Form: compound = CC1(C)C2CC[C@]3(C)C(C(=O)C=C4[C@H]5C[C@@](C)(C(=O)O)CC[C@]5(C)CC[C@]43C)[C@@]2(C)CC[C@@H]1O (stereo partly drawn) ; normalized growth = 1.02

Reported normalized growth ( COC(=O)C1[C@H]2C[C@H]3c4[nH]c5ccccc5c4CCN3C[C@@H]2CC[C@@H]1O (stereo partly drawn) ) = 1

Reported normalized growth for "NC/C=C/C(=O)O" was 1.03

Sure, the documented normalized growth for CC(C(=O)O)c1ccc2c(c1)[nH]c1ccc(Cl)cc12 (stereo not drawn) is 0.995

The reported normalized growth of the compound "CCC1(c2ccccc2)C(=O)NCNC1=O" was 1.01

The reported value for "CC(C)N(C(=O)CCl)c1ccccc1" in terms of normalized growth is 1.03

// field: normalized growth; key: "CCN(CC)C(=S)SSC(=S)N(CC)CC" ; value = 0.05

Consider "Cc1c(Cl)cccc1SCC(=O)O" . Its measured normalized growth is 1.01

CC1(C)C2CC[C@]3(C)C(C(=O)C=C4[C@@H]5C[C@@](C)(C(=O)O)CC[C@]5(C)CC[C@]43C)[C@@]2(C)CC[C@@H]1OC(=O)CCC(=O)O (stereo partly drawn) has a reported normalized growth of 0.991

// normalized growth value for "CC(=O)/C(=C\Nc1ncccn1)S(=O)(=O)c1ccc(Cl)cc1" : 1

Record summary for "CNC(=S)NN=C(N)c1ccccn1" : reported normalized growth = 0.64

Per the record, CCc1cccc(C)c1N(C(=O)CCl)C(C)COC (stereo not drawn) has normalized growth of 1

====

- assayRemarks: chemical genetic growth profiling, strain panel (AID 1159580);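 also: tested at 20 µM; growth read once vehicle control cultures reached saturation at 30 °C; 1 = growth at the plate median or of vehicle wells; lower values mean less growth of the strain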
- assayContext: S. cerevisiae deletion strains, growth OD, locus YER155C, strain BEM2 (second series)
Out of some 5,500 compounds screened, about 2,000 (36%) were called active. Inconclusive results (about 18%) are left out. No stated cut-off is given here; in the data, active means normalized growth mostly below about 0.91 (no sharp cut-off); inconclusive means no clear call, values can overlap the other calls; inactive means mostly above about 0.92. Some of the results follow.
Please state which outcome applies, choosing from active, inactive

CC(C)[C@H](N)C(=O)OCCOCn1cnc2c(=O)[nH]c(N)nc21: inactive
OCC(O)Cc1ccc2c(c1)OCO2 (centres undefined): inactive
COc1ccc(-c2coc3c(O)c(OC)ccc3c2=O)cc1: active
c1ccc(CC2=NCCN2)cc1: inactive
CCCCCC(=O)O[C@]1(C(C)=O)CCC2C3CCC4=CC(=O)CC[C@]4(C)C3CC[C@@]21C (some centres undefined): inactive
C=CC1=C(C(=O)O)N2C(=O)[C@@H](NC(=O)/C(=N/O)c3csc(N)n3)[C@H]2SC1: inactive
c1ccc(CN(CC2=NCCN2)c2ccccc2)cc1: inactive
CN=C(NC#N)NCCSCc1nc[nH]c1C: inactive
NC[C@@H]1O[C@H](O[C@@H]2[C@@H](CO)OC(O[C@@H]3[C@@H](O)[C@H](N)C[C@H](N)[C@H]3OC3O[C@H](CN)[C@@H](O)[C@H](O)[C@H]3N)[C@@H]2O)[C@H](N)[C@@H](O)[C@@H]1O (some centres undefined): inactive
COc1ccc(C[C@H]2NC[C@H](O)[C@H]2OC(C)=O)cc1: inactive

QUERY: Short answer needed: outcome of this test for "C/C=C(/C(=C/C)c1ccc(O)cc1)c1ccc(O)cc1" ?
RESULT: inactive

QUERY: Record request — test call for "O=c1ccc2cc(O)c(O)cc2o1"
RESULT: inactive

QUERY: Could you check what this test reported for "C1CCc2nnnn2CC1" ?
RESULT: inactive

QUERY: Just curious, what result did "NC/C=C/C(=O)O" get here?
RESULT: inactive
